These measurements were taken from patent US9169217B2.

recorded endpoint: melting point

- chemical structure: "CCOc1c(Cl)ccc(-c2nc(C(=O)OCc3ccccc3)c(Cl)c(N)c2F)c1F"
  melting point: "122 to 124 °C"
- chemical structure: "COC(=O)c1nc(-c2ccc(C3CC3)cc2)c(F)c(N)c1Cl"
  melting point: "116 to 119 °C"
- chemical structure: "COc1c(Cl)ccc(-c2nc(C(=O)OCc3ccc(SC)cc3)c(Cl)c(N)c2F)c1F"
  melting point: "145 °C"

Now, please, on to the next molecule.
// recorded melting point for `COc1c(Cl)ccc(-c2cc(N)c(Cl)c(C(=O)OCc3ccc(Cl)cc3)n2)c1F` : 100 to 108 °C

---

# melting point listing for each entry below

- chemical structure: "COc1c(Cl)ccc(-c2nc(C(=O)OCc3cccc(C)c3)c(Cl)c(N)c2F)c1F"
  melting point: "150 °C"

For reference, reported melting point for `COc1cccc(COC(=O)c2nc(-c3ccc(Cl)c(OC)c3F)c(F)c(N)c2Cl)c1` stands at 164 to 165 °C

// `COc1ccccc1COC(=O)c1nc(-c2ccc(Cl)c(OC)c2F)c(F)c(N)c1Cl` : melting point value = 135 to 136 °C

---

Reported melting point values follow for various compounds

The measured melting point associated with COc1c(Cl)ccc(-c2nc(C(=O)OCc3ccc(C#N)cc3)c(Cl)c(N)c2F)c1F [Compound 4] reads 151 °C

Entry COc1c(Cl)ccc(-c2nc(C(=O)OCc3cccc(Cl)c3)c(Cl)c(N)c2F)c1F [Compound 12] ; melting point = 147 to 148 °C

Value of melting point reported for the compound COc1c(Cl)ccc(-c2nc(C(=O)OCc3cccc(F)c3)c(Cl)c(N)c2F)c1F [Compound 23] is 160 to 161 °C

Value of measured melting point for the entry COc1c(Cl)ccc(-c2nc(C(=O)OCc3ccc(C)cc3)c(Cl)c(N)c2F)c1F [Compound 3] : 139 °C

Looking up COc1c(Cl)ccc(-c2nc(C(=O)OCc3ccc(Cl)cc3C)c(Cl)c(N)c2F)c1F [Compound 30] , I found its melting point recorded as 167 to 168 °C

According to the records, this compound COC(=O)c1cccc(COC(=O)c2nc(-c3ccc(Cl)c(OC)c3F)c(F)c(N)c2Cl)c1 [Compound 29] displays melting point of 144 to 145 °C

Recorded melting point (compound COc1c(Cl)ccc(-c2nc(C(=O)OCc3ccccc3Cl)c(Cl)c(N)c2F)c1F [Compound 9] ): 183 to 184 °C

---

recorded endpoint: melting point

Field: example entries. Status: answers known.
- compound: "COc1c(Cl)ccc(-c2nc(C(=O)OCc3ccccc3F)c(Cl)c(N)c2F)c1F [Compound 25]"
  melting point: "169 °C"
- compound: "COc1c(Cl)ccc(-c2nc(C(=O)OCCc3ccc(Cl)cc3)c(Cl)c(N)c2F)c1F [Compound 22]"
  melting point: "107 to 108 °C"
- compound: "COc1c(Cl)ccc(-c2nc(C(=O)OCc3ccc(C(F)(F)F)cc3)c(Cl)c(N)c2F)c1F [Compound 6]"
  melting point: "118 to 119 °C"

# melting point of COc1c(Cl)ccc(-c2nc(C(=O)OCc3ccc(C(C)C)cc3)c(Cl)c(N)c2F)c1F [Compound 27] = 75 to 76 °C

Record COc1c(Cl)ccc(-c2nc(C(=O)OCc3ccc4ccccc4c3)c(Cl)c(N)c2F)c1F [Compound 28] , field melting point: 142 to 143 °C
